Field: AC50. Provide a value for each of the compounds that follow.

[Q] Fetch value of AC50 on Growth hormone secretagogue receptor type 1 (Homo sapiens, UniProt Q92847) for COc1ccc(C2C(=O)c3ccccc3C2=O)cc1 [ANISINDIONE] .
Sequence (Q92847 whole entry): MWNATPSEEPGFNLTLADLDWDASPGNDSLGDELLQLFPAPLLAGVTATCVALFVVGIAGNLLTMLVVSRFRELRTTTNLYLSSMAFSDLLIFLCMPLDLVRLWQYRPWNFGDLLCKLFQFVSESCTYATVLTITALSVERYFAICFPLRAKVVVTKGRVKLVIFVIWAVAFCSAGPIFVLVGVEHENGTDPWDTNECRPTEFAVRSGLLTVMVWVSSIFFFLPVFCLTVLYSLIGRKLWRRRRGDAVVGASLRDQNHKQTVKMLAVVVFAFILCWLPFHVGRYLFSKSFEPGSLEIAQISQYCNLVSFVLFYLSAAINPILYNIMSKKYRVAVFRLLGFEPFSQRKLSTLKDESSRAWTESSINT
[A] > 10 µM

[Q] Fetch value of AC50 on Growth hormone secretagogue receptor type 1 (Homo sapiens, UniProt Q92847) for CCCc1cc(=O)[nH]c(=S)[nH]1 [PROPYLTHIOURACIL] .
[A] > 10 µM

[Q] Fetch value of AC50 on Growth hormone secretagogue receptor type 1 (Homo sapiens, UniProt Q92847) for Clc1ccc(CCC(Cn2ccnc2)Sc2c(Cl)cccc2Cl)cc1 (stereo not given) [BUTOCONAZOLE] .
[A] > 30 µM

[Q] Fetch value of AC50 on Growth hormone secretagogue receptor type 1 (Homo sapiens, UniProt Q92847) for O=C(CCCN1CCC(O)(c2ccc(Br)cc2)CC1)c1ccc(F)cc1 [BROMPERIDOL] .
[A] 6.9 µM

[Q] Fetch value of AC50 on Growth hormone secretagogue receptor type 1 (Homo sapiens, UniProt Q92847) for `CC(C)N(CCCCOCC(=O)O)c1cnc(-c2ccccc2)c(-c2ccccc2)n1` .
[A] > 30 µM

[Q] Fetch value of AC50 on Growth hormone secretagogue receptor type 1 (Homo sapiens, UniProt Q92847) for CCCCCCCN(CC)CCCC(O)c1ccc(NS(C)(=O)=O)cc1 (stereo not given) [IBUTILIDE] .
[A] > 30 µM

[Q] Fetch value of AC50 on Growth hormone secretagogue receptor type 1 (Homo sapiens, UniProt Q92847) for CC(C)NC[C@H](O)COc1ccc(CC(N)=O)cc1 [ESATENOLOL] .
[A] > 30 µM

[Q] Fetch value of AC50 on Growth hormone secretagogue receptor type 1 (Homo sapiens, UniProt Q92847) for CN(Cc1cnc2nc(N)nc(N)c2n1)c1ccc(C(=O)N[C@@H](CCC(=O)O)C(=O)O)cc1 [METHOTREXATE] .
[A] > 30 µM

[Q] Fetch value of AC50 on Growth hormone secretagogue receptor type 1 (Homo sapiens, UniProt Q92847) for O=C(/C=C/c1cccc(S(=O)(=O)Nc2ccccc2)c1)NO [BELINOSTAT] .
[A] > 30 µM

[Q] Fetch value of AC50 on Growth hormone secretagogue receptor type 1 (Homo sapiens, UniProt Q92847) for CC(=O)c1ccc(S(=O)(=O)NC(=O)NC2CCCCC2)cc1 [ACETOHEXAMIDE] .
[A] > 10 µM
